FYI, the data here is from paper PMC9597875.

Form field: Ki (one value per entry).
- Tested on: CYP2C8 (Homo sapiens, UniProt P10632)
- Sequence (P10632 whole entry): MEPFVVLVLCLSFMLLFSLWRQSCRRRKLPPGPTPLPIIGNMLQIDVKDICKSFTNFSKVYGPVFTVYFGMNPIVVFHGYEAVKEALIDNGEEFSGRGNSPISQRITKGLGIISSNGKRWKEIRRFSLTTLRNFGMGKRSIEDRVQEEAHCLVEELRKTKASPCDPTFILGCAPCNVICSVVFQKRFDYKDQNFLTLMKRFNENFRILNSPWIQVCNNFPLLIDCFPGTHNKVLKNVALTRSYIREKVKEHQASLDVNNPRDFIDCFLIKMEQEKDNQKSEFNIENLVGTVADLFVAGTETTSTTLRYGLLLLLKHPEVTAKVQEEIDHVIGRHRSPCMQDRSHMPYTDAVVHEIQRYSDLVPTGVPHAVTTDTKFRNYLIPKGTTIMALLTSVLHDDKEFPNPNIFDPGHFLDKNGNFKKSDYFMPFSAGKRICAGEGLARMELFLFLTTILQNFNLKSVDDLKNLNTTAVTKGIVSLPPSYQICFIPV
Please report the result as a number followed by the unit.

CN(CCOc1ccc(CC2SC(=O)NC2=O)cc1)c1ccccn1 (centres unmarked) [Rosiglitazone, rosiglitazone] | 1600 nM

Give its Ki value. Item: CCC(CC)COC(=O)[C@H](C)N[P@](=O)(OC[C@H]1O[C@@](C#N)(c2ccc3c(N)ncnn23)[C@H](O)[C@@H]1O)Oc1ccccc1 [Remdesivir, remdesivir]
134 nM

###

- Tested on: UniProt:P08684
- Sequence (P08684 whole entry): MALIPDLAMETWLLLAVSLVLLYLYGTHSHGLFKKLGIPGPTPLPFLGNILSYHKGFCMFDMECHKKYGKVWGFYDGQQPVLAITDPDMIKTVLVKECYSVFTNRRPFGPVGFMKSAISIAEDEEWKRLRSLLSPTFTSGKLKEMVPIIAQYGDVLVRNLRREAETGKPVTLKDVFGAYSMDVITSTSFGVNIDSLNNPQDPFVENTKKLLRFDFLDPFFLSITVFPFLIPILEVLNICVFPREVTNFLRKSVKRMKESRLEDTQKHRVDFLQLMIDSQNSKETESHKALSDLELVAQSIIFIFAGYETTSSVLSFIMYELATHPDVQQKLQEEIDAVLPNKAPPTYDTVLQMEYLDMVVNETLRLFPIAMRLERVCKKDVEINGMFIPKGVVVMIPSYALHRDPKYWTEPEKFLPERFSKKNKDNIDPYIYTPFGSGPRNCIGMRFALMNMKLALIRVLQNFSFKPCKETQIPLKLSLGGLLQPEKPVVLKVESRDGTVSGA
Reported endpoint: pIC50
pIC50 here: minus log base 10 of the concentration, concentration in moles per litre.

Give its pIC50 value. Item: CCC(CC)COC(=O)[C@H](C)N[P@](=O)(OC[C@H]1O[C@@](C#N)(c2ccc3c(N)ncnn23)[C@H](O)[C@@H]1O)Oc1ccccc1
6.32

###

- Tested on: CYP2D6 (Homo sapiens, UniProt P10635)
- Sequence (P10635 whole entry): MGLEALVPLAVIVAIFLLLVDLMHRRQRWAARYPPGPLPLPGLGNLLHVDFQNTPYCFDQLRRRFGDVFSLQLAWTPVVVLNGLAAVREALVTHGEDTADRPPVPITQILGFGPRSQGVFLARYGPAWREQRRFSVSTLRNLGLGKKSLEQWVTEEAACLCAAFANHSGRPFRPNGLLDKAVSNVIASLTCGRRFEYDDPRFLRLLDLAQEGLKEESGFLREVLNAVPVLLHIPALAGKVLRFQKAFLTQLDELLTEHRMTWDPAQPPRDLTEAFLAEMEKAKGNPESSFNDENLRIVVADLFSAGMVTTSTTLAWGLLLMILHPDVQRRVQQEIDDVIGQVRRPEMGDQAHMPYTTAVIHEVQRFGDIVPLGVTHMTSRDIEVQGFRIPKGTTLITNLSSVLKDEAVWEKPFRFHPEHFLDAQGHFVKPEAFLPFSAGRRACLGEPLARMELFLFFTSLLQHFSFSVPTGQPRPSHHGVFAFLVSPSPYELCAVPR
Reported endpoint: pKi
pKi here: minus log base 10 of the concentration, concentration in moles per litre.

Identify the measured pKi of CCC(CC)COC(=O)[C@H](C)N[P@](=O)(OC[C@H]1O[C@@](C#N)(c2ccc3c(N)ncnn23)[C@H](O)[C@@H]1O)Oc1ccccc1 for CYP2D6 (Homo sapiens, UniProt P10635).
6.57

###

- Tested on: CYP2C8 (Homo sapiens, UniProt P10632)
- Procedure text: CYP2C8 activity inhibition assay in human liver microsomes (paclitaxel hydroxylation, LC-MS/MS)
- Test parameters: IC50 CYP2C8, HLM, paclitaxel 5 µM, positive control
Reported endpoint: IC50 (µM)
Give a bare numeral; the unit µM is implied.

Give its IC50 value. Item: CN(CCOc1ccc(CC2SC(=O)NC2=O)cc1)c1ccccn1 (stereo not shown)
3.28

###

- Tested on: UniProtKB P08684
Reported endpoint: Ki (nM)
Give a bare numeral; the unit nM is implied.

Give its Ki value. Item: CCC(CC)COC(=O)[C@H](C)N[P@](=O)(OC[C@H]1O[C@@](C#N)(c2ccc3c(N)ncnn23)[C@H](O)[C@@H]1O)Oc1ccccc1 [Remdesivir, remdesivir]
241
